These data points were gathered from patent US8735438B2.

Target: alpha 2B receptor (Homo sapiens, UniProt P18089)
Construct: expressed in transfected cells; host or cells: NIH-3T3 cells
Experiment: RSAT (Receptor Selection and Amplification Technology) assay, alpha 2B
Assay type: cell-based
Settings: NIH-3T3 cells cotransfected with receptor and Gq/i5; ratio of maximal effect to that of standard full agonist brimonidine (UK14304)
RECORDED METRIC: Alpha 2B intrinsic activity (efficacy), value in parentheses

Alpha 2B intrinsic activity (efficacy), value in parentheses in this record for Fc1cccc(C(Cc2ccccc2)c2c[nH]cn2)c1F (centres unmarked) : .53

Alpha 2B intrinsic activity (efficacy), value in parentheses in this record for Cc1cccc(C(Cc2ccccc2)c2c[nH]cn2)c1C (centres unmarked) : 1.01

Alpha 2B intrinsic activity (efficacy), value in parentheses in this record for c1ccc(CC(c2ccncc2)c2c[nH]cn2)cc1 (centres unmarked) : .74

Alpha 2B intrinsic activity (efficacy), value in parentheses in this record for Clc1cccc(/C(=C/c2ccccc2)c2c[nH]cn2)c1 : .80

Alpha 2B intrinsic activity (efficacy), value in parentheses in this record for Cc1ccccc1C(Cc1ccccc1)c1c[nH]cn1 (centres unmarked) : .69

Alpha 2B intrinsic activity (efficacy), value in parentheses in this record for Clc1cccc(C(Cc2ccccc2)c2c[nH]cn2)c1Cl (centres unmarked) : .97

Alpha 2B intrinsic activity (efficacy), value in parentheses in this record for Fc1ccccc1C(Cc1ccccc1)c1c[nH]cn1 (centres unmarked) : .43

Alpha 2B intrinsic activity (efficacy), value in parentheses in this record for c1ccc(CC(c2ccccc2)c2c[nH]cn2)cc1 (centres unmarked) : .69

----------
Target: alpha 2B receptor (Homo sapiens)
Construct: expressed in transfected cells; host or cells: NIH-3T3 cells
Sequence (P18089 1-450): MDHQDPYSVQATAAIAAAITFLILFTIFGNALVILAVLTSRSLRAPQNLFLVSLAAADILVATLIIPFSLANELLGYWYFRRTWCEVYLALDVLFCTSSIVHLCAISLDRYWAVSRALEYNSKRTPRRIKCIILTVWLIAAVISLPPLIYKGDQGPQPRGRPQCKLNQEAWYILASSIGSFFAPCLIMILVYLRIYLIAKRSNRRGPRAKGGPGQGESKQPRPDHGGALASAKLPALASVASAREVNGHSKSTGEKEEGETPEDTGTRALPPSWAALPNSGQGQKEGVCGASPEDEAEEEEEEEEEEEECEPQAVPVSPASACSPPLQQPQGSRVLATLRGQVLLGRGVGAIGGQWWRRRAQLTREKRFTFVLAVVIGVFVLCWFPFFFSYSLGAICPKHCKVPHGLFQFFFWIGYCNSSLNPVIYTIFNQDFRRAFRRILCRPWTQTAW
Assay: RSAT (Receptor Selection and Amplification Technology) assay, alpha 2B
Assay type: cell-based
Conditions: NIH-3T3 cells cotransfected with receptor and Gq/i5; read-out: Alpha 2B potency nM (EC50)
RECORDED METRIC: EC50 (nM)
Quick note: give the figure in nM, leave out the unit.

EC50 in this record for Fc1cccc(C(Cc2ccccc2)c2c[nH]cn2)c1F (stereo not drawn) : 4.4

EC50 in this record for Cc1ccccc1C(Cc1ccccc1)c1c[nH]cn1 (stereo not drawn) : 101

EC50 in this record for Clc1cccc(C(Cc2ccccc2)c2c[nH]cn2)c1Cl (stereo not drawn) : 8.4
